For each of the molecules below, state its MNTC at 72 h.
Method Description: in vitro
Experimental Conditions: dog, mdck

INSERT INTO measurements (molecule, test_result) VALUES
  ('CN(C)C(=O)COC(=O)Cc1ccc(OC(=O)c2ccc(NC(=N)N)cc2)cc1.CS(=O)(=O)O [Compound B, methanesulfonate]', '≥ 1000 µg/mL');

Please examine the following record next.
Problem: Dear colleague, I am looking for the recorded MNTC at 72 h of the following molecule: CS(=O)(=O)O.CS(=O)(=O)O.N=C(N)Nc1ccc(C(=O)Oc2ccc3cc(C(=N)N)ccc3c2)cc1 [Compound A, dimethanesulfonate]
Result: ≥ 50 µg/mL

The reported numbers originate from patent US4990537A.
